Target: T1, human Sdc2 (human, UniProt P34741 19-144, limits assumed)
T1 construct: Antigen of the Octet tandem binning, loaded on biosensors at 100 nM; also called huSdc2; hSdc2
T1 sequence (P34741 19-144 limits assumed): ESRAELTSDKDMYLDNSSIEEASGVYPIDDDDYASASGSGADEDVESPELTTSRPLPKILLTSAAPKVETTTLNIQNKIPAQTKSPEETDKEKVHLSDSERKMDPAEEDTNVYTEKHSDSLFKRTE
Assay: Octet tandem binning; saturating Ab m3 19844-R3-P1-C02 (row boxed, self-self >0.09)
Quantity kind: raw competing-Ab binding signal
Form rule: numeric answer, no unit written next to it.

IN: Annotate the binder 6-N03-A (antibody, mouse IgG1, kappa, V domains shown) VH: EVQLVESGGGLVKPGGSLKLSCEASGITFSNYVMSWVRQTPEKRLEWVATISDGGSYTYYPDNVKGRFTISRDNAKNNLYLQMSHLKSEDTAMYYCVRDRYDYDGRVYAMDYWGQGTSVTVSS VL: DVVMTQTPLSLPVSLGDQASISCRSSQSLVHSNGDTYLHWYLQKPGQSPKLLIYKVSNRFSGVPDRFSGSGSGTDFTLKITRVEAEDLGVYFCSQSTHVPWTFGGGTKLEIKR with its measured raw competing-Ab binding signal.
OUT: 0.397

IN: Annotate the binder R4M-P3-A12 (antibody, human IgG1, kappa, V domains shown) VH: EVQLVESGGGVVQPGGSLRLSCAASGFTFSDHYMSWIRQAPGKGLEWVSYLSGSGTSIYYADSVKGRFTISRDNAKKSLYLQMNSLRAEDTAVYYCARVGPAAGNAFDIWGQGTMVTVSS VL: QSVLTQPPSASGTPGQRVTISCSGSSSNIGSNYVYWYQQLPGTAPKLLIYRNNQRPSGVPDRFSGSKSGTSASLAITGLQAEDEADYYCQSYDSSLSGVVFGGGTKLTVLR with its measured raw competing-Ab binding signal.
OUT: 0.0422

IN: Annotate the binder R4M-P3-E06 (antibody, human IgG1, kappa, V domains shown, human IgG1 kappa from the phage campaign) VH: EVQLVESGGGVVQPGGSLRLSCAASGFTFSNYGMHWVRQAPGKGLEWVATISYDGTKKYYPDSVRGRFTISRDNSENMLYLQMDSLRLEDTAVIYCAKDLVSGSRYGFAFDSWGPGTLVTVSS VL: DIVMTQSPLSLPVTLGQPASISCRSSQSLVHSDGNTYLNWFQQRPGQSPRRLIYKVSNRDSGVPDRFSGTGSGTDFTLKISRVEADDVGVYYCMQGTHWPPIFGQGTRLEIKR with its measured raw competing-Ab binding signal.
OUT: 0.0913

IN: Annotate the binder R3-P3-E09 (antibody, human IgG1, kappa, V domains shown, human IgG1 kappa from the phage campaign) VH: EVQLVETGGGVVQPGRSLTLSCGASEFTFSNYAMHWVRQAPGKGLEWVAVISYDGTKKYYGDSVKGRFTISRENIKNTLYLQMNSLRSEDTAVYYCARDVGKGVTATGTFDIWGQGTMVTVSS VL: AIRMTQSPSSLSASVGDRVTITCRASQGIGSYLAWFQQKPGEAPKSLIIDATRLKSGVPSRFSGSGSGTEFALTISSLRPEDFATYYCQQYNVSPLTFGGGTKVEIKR with its measured raw competing-Ab binding signal.
OUT: 0.246

IN: Annotate the binder R4M-P1-A10 (antibody, human IgG1, kappa, V domains shown) VH: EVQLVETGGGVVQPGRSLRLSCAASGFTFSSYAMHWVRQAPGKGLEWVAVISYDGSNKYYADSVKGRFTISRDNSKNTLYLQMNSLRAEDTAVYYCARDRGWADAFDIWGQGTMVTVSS VL: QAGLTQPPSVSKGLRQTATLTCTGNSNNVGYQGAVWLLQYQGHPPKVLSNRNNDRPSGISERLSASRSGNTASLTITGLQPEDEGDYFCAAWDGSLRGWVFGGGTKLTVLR with its measured raw competing-Ab binding signal.
OUT: 0.255
